- system: T1, cell-bound CD73 (human, UniProt P21589 27-549)
- T1 sequence (looked up): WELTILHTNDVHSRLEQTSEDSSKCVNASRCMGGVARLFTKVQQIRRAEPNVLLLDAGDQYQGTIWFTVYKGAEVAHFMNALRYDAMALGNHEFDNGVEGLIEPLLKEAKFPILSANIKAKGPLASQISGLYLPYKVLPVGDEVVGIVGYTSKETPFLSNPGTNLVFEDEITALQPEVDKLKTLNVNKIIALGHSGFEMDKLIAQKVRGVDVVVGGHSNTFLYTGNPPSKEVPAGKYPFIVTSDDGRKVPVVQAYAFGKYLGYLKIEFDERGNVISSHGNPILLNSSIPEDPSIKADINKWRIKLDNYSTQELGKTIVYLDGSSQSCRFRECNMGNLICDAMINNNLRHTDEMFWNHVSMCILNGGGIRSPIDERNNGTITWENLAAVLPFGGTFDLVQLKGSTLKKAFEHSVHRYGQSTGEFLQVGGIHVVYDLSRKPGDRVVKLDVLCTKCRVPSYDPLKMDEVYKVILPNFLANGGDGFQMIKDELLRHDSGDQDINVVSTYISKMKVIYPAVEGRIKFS
- assay details: cell-based or functional assay
t means recorded IFNγ release [fold change over control], Donor C, 1 nM antibody is 40 fold or above; f means it is below 40 fold.

binder	discrete label
C3 (antibody, human IgG1, kappa, L234A L235A, V domains shown, Humanized monoclonal antibody; also called anti-CD73 antibody C3) VH: QVQLVQSGAEVKKPGDSVKVSCKASGYTFTTYWMHWVRQAPGQGLEWMGAIYPGLSDTTYSQKFKGKVTMTRDTSTSTVYMKLSSLRSEDTAVYYCARLLDYAMDYWGQGTLVTVSS VL: DIQMTQSPSSLSASVGDRVTITCRASQDIRSYLNWHQQKPGKAPKLLIWYTSRLHSGVPSRFSGSGSGTDYTLTISSLQPEDFATYFCQQGETLPWTFGQGTKLEIKR	f
C1 (antibody, human IgG1, kappa, L234A L235A, V domains shown, Humanized monoclonal antibody; also called anti-CD73 antibody C1) VH: QVQLVQSGAEVKKPGDSVKVSCKASGYTFTTYWMHWVRQAPGQGLEWMGAIYPGFSDTTYSQKFKGKVTMTRDTSTSTVYMKLSSLRSEDTAVYYCARLLDYAMDYWGQGTLVTVSS VL: DIQMTQSPSSLSASVGDRVTITCRASQDIRSYLNWHQQKPGKAPKLLIWYTSRLHSGVPSRFSGSGSGTDYTLTISSLEPEDFATYFCQQGETLPWTFGQGTKLEIKR	t
C5 (antibody, human IgG1, kappa, L234A L235A, V domains shown, Humanized monoclonal antibody; also called anti-CD73 antibody C5) VH: QVQLVQSGAEVKKPGDSVKVSCKASGYTFTTYWMHWVRQAPGQGLEWMGAIYPGNSDTTYNQKFKGKVTMTRDTSTSTVYMKLSSLRSEDTAVYYCARLLDYAMDYWGQGTLVTVSS VL: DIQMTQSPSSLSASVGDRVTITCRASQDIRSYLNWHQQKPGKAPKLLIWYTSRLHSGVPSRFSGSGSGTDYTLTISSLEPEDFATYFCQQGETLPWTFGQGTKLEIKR	t
C4 (antibody, human IgG1, kappa, L234A L235A, V domains shown, Humanized monoclonal antibody; also called C04; inventive anti-CD73 antibody C4) VH: QVQLVQSGAEVKKPGDSVKVSCKASGYTFTTYWMHWVRQAPGQGLEWMGAIYPGLSDTTYNQKFKGKVTMTRDTSTSTVYMKLSSLRSEDTAVYYCARLLDYAMDYWGQGTLVTVSS VL: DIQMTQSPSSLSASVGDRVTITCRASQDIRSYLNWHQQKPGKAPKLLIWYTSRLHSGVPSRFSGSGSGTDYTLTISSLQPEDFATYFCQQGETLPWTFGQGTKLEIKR	f
B2 (antibody, human IgG1, kappa, L234A L235A, V domains shown, Humanized monoclonal antibody; also called anti-CD73 antibody B2) VH: EVQLVESGGGLVQPGGSLRLSCAASGLTFSSYVMSWVRQAPGKGLEWVSTISSGGVSTYYPDTVKGRFTISRDNSKNTLYLQMNSLRAEDTAVYYCAKRETARATGFAYWGQGTLVTVSA VL: DIQMTQSPSSLSASVGDRVTITCKASQSVSDDVTWYQQKPGKAPKLLIYYASNRYTGVPSRFSGSGSGTDFTFTISSVQPEDIATYYCQQDYSSPWTFGGGTKLEIKR	f
C6 (antibody, human IgG1, kappa, L234A L235A, V domains shown, Humanized monoclonal antibody; also called anti-CD73 antibody C6) VH: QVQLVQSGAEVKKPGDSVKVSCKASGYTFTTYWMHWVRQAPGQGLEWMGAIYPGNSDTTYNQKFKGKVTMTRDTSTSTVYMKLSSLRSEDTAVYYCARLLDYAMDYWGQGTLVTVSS VL: DIQMTQSPSSLSASVGDRVTITCRASQDIRNYLNWHQQKPGKAPKLLIWYTSRLHSGVPSRFSGSGSGTDYTLTISSLQPEDFATYFCQQGNTLPWTFGQGTKLEIKR	t
